- Assay text: chemical genetic growth profiling, strain panel (AID 1159580);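 also: tested at 20 µM; growth read once vehicle control cultures reached saturation at 30 °C; 1 = growth at the plate median or of vehicle wells; lower values mean less growth of the strain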
- Measurement setup: S. cerevisiae deletion strains, growth OD, locus YGL253W, strain hxk2, active compounds read low
In all, about 5,500 compounds went through this assay and about 2,000 (36%) were called active. Not shown: some 18% with an inconclusive outcome. The list shows a part of the results.
Reported endpoint: normalized growth

Compound	Reported endpoint	Experimental result
CCC(=O)OCC(=O)C1(OC(=O)CC)C(C)CC2C3C(Cl)CC4=CC(=O)C=CC4(C)C3C(O)CC21C (configuration not stated)	normalized growth	1.02
NC(=O)c1ccc([N+](=O)[O-])cc1Cl	normalized growth	0.971
CCn1nc(C(=O)O)c(=O)c2cc3c(cc21)OCO3	normalized growth	1.01
CCC(=O)OCC(=O)[C@@]1(OC(=O)CC)[C@@H](C)CC2C3CCC4=CC(=O)C=C[C@]4(C)C3(F)[C@@H](O)C[C@@]21C (some centres not stated)	normalized growth	1.03
NC(=O)c1cc([N+](=O)[O-])cc([N+](=O)[O-])c1	normalized growth	0.994
COC1=CC(C)[C@@H]2C[C@H]3OC(=O)C[C@H]4C(C)=C(OC)C(=O)C([C@@]34C)[C@@]2(C)C1=O (some centres not stated)	normalized growth	0.983
CCCCC(=O)O[C@]1(C(=O)CO)[C@@H](C)CC2C3CCC4=CC(=O)C=C[C@]4(C)[C@@]3(F)C(O)C[C@@]21C (some centres not stated)	normalized growth	0.985
CC1(C)S[C@@H]2[C@H](NC(=O)[C@@H](N)c3ccc(O)cc3)C(=O)N2[C@H]1C(=O)O	normalized growth	0.99
CCC(=O)O[C@]1(C(=O)CCl)[C@@H](C)CC2C3CCC4=CC(=O)C=C[C@]4(C)[C@@]3(F)[C@@H](O)C[C@@]21C (some centres not stated)	normalized growth	1
CCc1ccc2c(O)c3c(cc2c1C(=O)OC)C(=O)c1c(O)ccc(O)c1C3=O	normalized growth	0.982
O=c1c(-c2ccc(O)cc2)coc2c(C3O[C@H](CO)[C@@H](O)[C@H](O)[C@H]3O)c(O)ccc12 (some centres not stated)	normalized growth	0.982
CN(C)C(=O)C(CCN1CCC(O)(c2ccc(Cl)cc2)CC1)(c1ccccc1)c1ccccc1	normalized growth	1.02
C[C@@H]1CC[C@@]23CCC4(C)[C@@](C=CC5[C@@]6(C)CCC(=O)C(C)(C)C6CC[C@]54C)(OC2=O)C3[C@H]1C (some centres not stated)	normalized growth	1
COc1c(O)cc2c(c1O)[C@H]1O[C@H](CO)[C@@H](O)[C@H](O)[C@@H]1OC2=O	normalized growth	1.02
CC(=O)O[C@@H]1CC2C(C)(CC[C@H](O)C2(C)C)C2CC[C@]3(C)C(=CC(=O)O[C@H]3c3ccoc3)C21C (some centres not stated)	normalized growth	0.997
CC(C)(C)NCC(O)COc1cccc2c1C[C@H](O)[C@H](O)C2 (some centres not stated)	normalized growth	1.02
C[C@@H](CO)NC(=O)C1C=C2c3cccc4[nH]cc(c34)C[C@H]2N(C)C1 (some centres not stated)	normalized growth	0.985

* * *

- Assay text: chemical genetic growth profiling, strain panel (AID 1159580);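 also: tested at 20 µM; growth read once vehicle control cultures reached saturation at 30 °C; 1 = growth at the plate median or of vehicle wells; lower values mean less growth of the strain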
- Measurement setup: S. cerevisiae deletion strains, growth OD, locus YHR079C, strain IRE1
About 2,000 (36%) of roughly 5,500 compounds were called active. Roughly 18% stayed inconclusive and do not appear here. No stated cut-off is given here; in the data, active means normalized growth mostly below about 0.91 (no sharp cut-off); inconclusive means no clear call, values can overlap the other calls; inactive means mostly above about 0.92. Some of the results follow.
Outcome codes: yes (active), no (inactive)

Compound	Answer label
C=CCSSCC=C	yes
COc1ccccc1N1CCN(C(=O)C(C)c2ccc(CC(C)C)cc2)CC1 (stereo not given)	no
N#Cc1nccnc1N1CCN(C(=O)Nc2cc(Cl)cc(Cl)c2)CC1	no
C=CCSCC=C	no
NC[C@@H]1O[C@H](O[C@@H]2[C@@H](CO)OC(O[C@@H]3[C@@H](O)[C@H](N)C[C@H](N)[C@H]3O[C@H]3O[C@H](CO)[C@@H](O)[C@H](O)[C@H]3N)[C@@H]2O)[C@H](N)[C@@H](O)[C@@H]1O (stereo not given in full)	no
